- subject.of.test: T1, human SLC34A2 (human, UniProt O95436 1-690)
- T1 sequence (looked up): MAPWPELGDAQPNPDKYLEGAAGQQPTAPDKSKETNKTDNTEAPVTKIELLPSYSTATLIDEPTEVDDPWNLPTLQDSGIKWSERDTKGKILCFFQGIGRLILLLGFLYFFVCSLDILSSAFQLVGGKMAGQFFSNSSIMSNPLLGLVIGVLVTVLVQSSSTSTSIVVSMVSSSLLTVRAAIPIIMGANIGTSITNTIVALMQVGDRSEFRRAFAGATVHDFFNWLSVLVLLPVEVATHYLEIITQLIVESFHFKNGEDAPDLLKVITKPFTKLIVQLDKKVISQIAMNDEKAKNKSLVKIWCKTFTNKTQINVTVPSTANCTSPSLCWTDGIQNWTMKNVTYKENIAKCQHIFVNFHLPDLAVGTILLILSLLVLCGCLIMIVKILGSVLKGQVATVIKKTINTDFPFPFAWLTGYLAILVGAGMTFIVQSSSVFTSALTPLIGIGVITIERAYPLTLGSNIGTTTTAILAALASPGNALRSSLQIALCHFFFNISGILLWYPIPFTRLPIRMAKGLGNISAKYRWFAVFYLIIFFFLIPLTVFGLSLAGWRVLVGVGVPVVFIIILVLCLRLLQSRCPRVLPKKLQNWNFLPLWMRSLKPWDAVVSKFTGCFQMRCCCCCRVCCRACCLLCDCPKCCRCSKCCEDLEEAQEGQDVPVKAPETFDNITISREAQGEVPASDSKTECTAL
- assay.protocol: cell-based or functional assay
property.measured: cytotoxicity Inhibition %

binder="xi18G1H4 hIgG1 (antibody, V domains shown, chimeric, hIgG1) VH: QVQLQQPGAELVKPGASVRMSCKASAYTFTTYNLHWVKQTPGQGLEWIGAISPGNGVTSYNQKFRGKATLTADKSSSTAYMQLSSLTSEDSAVYYCARGYGYSVGAMDYWGQGTSVTVSS VL: DIQMTQTTSSLSASLGDRVNISCSASQGIGNFLNWYQQKPDGTVKLLIYYTSSLHSGVPPRFSGSGSGTDYSLTISNLEPEDIATYYCQQYHKLPLTFGAGTKLELK" result=82.7%
binder="xi55E5B6D12 hIgG1 (antibody, V domains shown, chimeric, hIgG1) VH: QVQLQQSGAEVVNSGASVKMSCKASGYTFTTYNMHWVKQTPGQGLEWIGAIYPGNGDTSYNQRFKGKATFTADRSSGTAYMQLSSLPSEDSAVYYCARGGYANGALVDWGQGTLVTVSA VL: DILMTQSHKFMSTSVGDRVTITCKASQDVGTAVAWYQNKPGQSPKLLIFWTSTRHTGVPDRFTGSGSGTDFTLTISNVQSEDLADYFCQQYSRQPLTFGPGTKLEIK" result=96.7%
binder="xi71F7D4 hIgG1 (antibody, V domains shown, chimeric, hIgG1) VH: DVKLVESGGDLVKLGGSLKLSCAASGFTFSNYYMSWVRQTPEKRLELVAVINSNGGTTYYPDNMKGRFTISRDNAKNTLYLQTSSLKSEDTALYYCGRHEHYYGTNIAWFAYWGQGTLVTVSA VL: DIVMTQSHKFMSTSVGDRVSITCKASQDVTTAVAWYQQKPGQSPKLLIYWASTRHTGVPDRFTGSGSGTDHTLTISSVQAEDLALYYCQQHYSTPVTFGGGTKLEIK" result=99.4%
